Target: Regulator of G-protein signaling 4 (Rattus norvegicus)
Test: RGS4 binding to activated Galpha-o blockers – biochemical, rat RGS4, AlF4-dependent, flow cytometry bead assay, dose response (AID 588523)
Conditions: FCPIA, bead fluorescence
Calls of active or inactive are those of the source.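 How the source made its calls: active means IC50 below 100 µM from duplicate concentration-response curves; inactive means IC50 above 100 µM.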
Please answer using one outcome listed in Y (active), N (inactive)

Previously resolved entries follow.
# Compound, Classification
data = [
    ("CCCN1CCc2cc(O)cc3c2[C@H]1Cc1ccc(O)c(O)c1-3", "Y"),
    ("CC1=NN(c2ccc(C(=O)O)cc2)C(=O)/C1=C\\c1ccc(OC(=O)c2cccs2)cc1", "Y"),
    ("COc1ccc(NC(=O)/C(Cl)=C(/Cl)S(=O)Cc2ccccc2)cn1 (stereo unspecified)", "Y"),
    ("O=C1NC(=S)N(c2ccccc2F)C(=O)/C1=C\\c1cccs1", "Y"),
    ("CCOCCCNC(=O)/C(C#N)=C\\c1ccc(Cl)c([N+](=O)[O-])c1", "N"),
    ("CN(C)c1oc(-c2ccccc2[N+](=O)[O-])nc1C#N", "N"),
    ("O=C(O)c1ccc(/C=C2\\COc3ccccc3C2=O)cc1", "N"),
    ("O=C(O)c1ccc(/C=C/C(=O)c2ccc3c(c2)OCCCO3)cc1", "N"),
    ("COc1ccc(-c2csc(NC3OC(=O)c4c3ccc(OC)c4OC)n2)cc1OC (stereo unspecified)", "N"),
    ("Cc1ccc(/C=C2\\C(=O)NC(=S)N(c3ccc(F)cc3)C2=O)s1", "Y"),
]

Enquiry: Check the results log: what was the call for CN(C)C(=O)COc1ccc(C(=O)/C=C/c2cccnc2)cc1 ?
Return: N
